Origin of measurements: patent US20250295799A1

Biological target: T1, human glypican-3 (GPC3) (human, UniProt P51654 25-554)
T1 construct: Endogenous on JHH-7, JHH-5, HepG2 and NCI-H446 tumour cells, or transiently expressed on CHO-S cells from a pTT5 plasmid; also called hGPC3; huGPC3
Experiment: flow cytometry on JHH-7 cells; antibody in mouse plasma, day 0
recordedEndpoint: Kd (nM)
The figure you give is taken to be in nM; do not add the unit.

Recorded Kd of H18L6_LC_G34Q mAb, v40208 (antibody, human IgG1, kappa, V domains shown, Full-size IgG1/kappa) VH: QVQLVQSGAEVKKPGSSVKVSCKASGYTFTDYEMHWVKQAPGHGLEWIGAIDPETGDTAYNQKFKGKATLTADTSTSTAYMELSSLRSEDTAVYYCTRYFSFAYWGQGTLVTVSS VL: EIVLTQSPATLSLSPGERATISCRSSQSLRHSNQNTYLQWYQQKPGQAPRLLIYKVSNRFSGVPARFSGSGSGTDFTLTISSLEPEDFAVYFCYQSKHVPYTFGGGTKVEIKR , please.
0.32

Quick one: H18L6_LC_G34K mAb, v40207 (antibody, human IgG1, kappa, V domains shown, Full-size IgG1/kappa) VH: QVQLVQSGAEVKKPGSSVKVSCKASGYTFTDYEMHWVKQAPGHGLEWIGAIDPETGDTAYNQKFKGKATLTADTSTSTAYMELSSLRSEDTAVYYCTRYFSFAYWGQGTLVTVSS VL: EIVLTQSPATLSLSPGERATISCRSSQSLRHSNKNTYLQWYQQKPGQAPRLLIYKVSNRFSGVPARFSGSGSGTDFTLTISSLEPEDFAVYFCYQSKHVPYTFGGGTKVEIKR
0.16

// same read-out, input: H18L6_LC_G34D mAb, v40203 (antibody, human IgG1, kappa, V domains shown) VH: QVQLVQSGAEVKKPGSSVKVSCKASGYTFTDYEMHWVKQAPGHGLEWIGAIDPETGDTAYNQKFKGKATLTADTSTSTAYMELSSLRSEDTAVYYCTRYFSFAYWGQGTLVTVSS VL: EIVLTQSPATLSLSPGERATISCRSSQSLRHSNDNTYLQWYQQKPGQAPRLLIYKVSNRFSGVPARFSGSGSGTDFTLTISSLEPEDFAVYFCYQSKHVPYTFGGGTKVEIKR
0.26
